target-system: human CB1 receptor (Homo sapiens, UniProt P21554)
Construct: expressed in transfected cells; host or cells: HEK293
Sequence (P21554 whole entry): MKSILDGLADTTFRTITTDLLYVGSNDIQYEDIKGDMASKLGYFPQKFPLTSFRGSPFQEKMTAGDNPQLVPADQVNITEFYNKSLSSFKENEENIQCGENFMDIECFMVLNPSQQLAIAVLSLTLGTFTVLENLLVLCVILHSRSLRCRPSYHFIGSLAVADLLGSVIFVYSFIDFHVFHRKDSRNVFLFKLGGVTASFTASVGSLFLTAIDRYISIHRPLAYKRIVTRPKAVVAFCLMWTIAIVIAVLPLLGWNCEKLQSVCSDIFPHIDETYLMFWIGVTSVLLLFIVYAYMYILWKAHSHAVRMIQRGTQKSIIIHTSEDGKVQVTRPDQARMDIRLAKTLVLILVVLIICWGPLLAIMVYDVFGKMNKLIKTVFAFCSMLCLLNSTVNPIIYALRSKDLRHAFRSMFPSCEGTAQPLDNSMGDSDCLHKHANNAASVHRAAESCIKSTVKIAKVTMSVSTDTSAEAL
procedure-text: bioSensAll β-arrestin plasma membrane translocation BRET biosensor (+GRK2) assay (antagonism of CP-55,940)
Type: cell-based
run-parameters: HEK293 cells transfected with hCB1 and β-arrestin PM translocation biosensor (+GRK2), EC75 of CP-55,940 (100 nM), overnight incubation, read-out: CB1 wt βarr2 IC50
quantity-name: pIC50
As a rule, pIC50 stands for the negative log10 of the concentration, concentration in M.

These solved cases illustrate the format of a correct answer.
compound	reported-measurement
CC(C)(O)COc1cc(N2CCN(S(=O)(=O)C(F)(F)F)CC2)n2nc(-c3ccccc3Cl)c(-c3ccc(Cl)cc3)c2n1	8.02
CCNC(=O)CN(C)c1cc(N2CCC(C)(C(N)=O)CC2)n2nc(-c3ccccc3Cl)c(-c3ccc(Cl)cc3)c2n1 [Compound 26]	7.52
CN(CCO)c1cc(N2CCC(C)(C(N)=O)CC2)n2nc(-c3ccccc3Cl)c(-c3ccc(Cl)cc3)c2n1	8.76
CN(CCC(N)=O)c1cc(N2CCC(C)(C(N)=O)CC2)n2nc(-c3ccccc3Cl)c(-c3ccc(Cl)cc3)c2n1	8.04
CN(C)C(=O)CN(C)c1cc(N2CCC(C)(C(N)=O)CC2)n2nc(-c3ccccc3Cl)c(-c3ccc(Cl)cc3)c2n1	7.76

What pIC50 value was documented for this compound, CC(C)(O)COc1cc(N2CCN(S(=O)(=O)C(F)(F)F)CC2)n2nc(-c3ccc(C#N)nc3)c(-c3ccc(Cl)cc3)c2n1 ?
8.91

What does the data say about its pIC50? Entry: CN(CP(C)(C)=O)c1cc(N2CCC[C@@H](C(N)=O)C2)n2nc(-c3ccccc3Cl)c(-c3ccc(Cl)cc3)c2n1
6.81

###

target-system: human CB1 receptor (Homo sapiens)
Construct: expressed in transfected cells; host or cells: HEK293
procedure-text: bioSensAll GAPL-Gi2 BRET biosensor assay (antagonism of CP-55,940)
Type: cell-based
run-parameters: HEK293 cells transfected with hCB1 and GAPL-Gi2 biosensor, EC75 of CP-55,940 (0.1 nM), overnight incubation, read-out: CB1 wt Gi2 IC50
The label rule met is reserved for IC50 strictly under 2 nM; rule not met covers values equal to or above it.

Hello, I'm reviewing records and need to know if IC50 of O=S1(=O)CCC(Nc2cc(N3CCC[C@H]3CO)nc3c(-c4ccc(Cl)cc4)c(-c4ccccc4Cl)nn23)CC1 is below 2 nM. Could you check?
rule met

Please check: IC50 for CC(C)(O)COc1cc(N2CCN(S(C)(=O)=O)CC2)n2nc(-c3ccccc3Cl)c(-c3ccc(Cl)cc3)c2n1 , strictly under 2 nM or not?
rule not met

# strict comparison: is reported IC50 < 2 nM? input = CC(C)(O)CNc1cc(N2CCC(C)(C(N)=O)CC2)n2nc(-c3ccccc3Cl)c(-c3ccc(Cl)cc3)c2n1
rule not met

Please let me know if O=S(=O)(N1CCN(c2cc(N3CCC[C@H]3CO)nc3c(-c4ccc(Cl)cc4)c(-c4ccccc4Cl)nn23)CC1)C(F)(F)F shows IC50 below 2 nM.
rule met

Identify whether the compound CN(C)C(=O)CN(C)c1cc(N2CCC[C@@H](C(N)=O)C2)n2nc(-c3ccccc3Cl)c(-c3ccc(Cl)cc3)c2n1 records IC50 below 2 nM.
rule not met

Record CN(CP(C)(C)=O)c1cc(N2CC[C@H](CC(N)=O)C2)n2nc(-c3ccccc3Cl)c(-c3ccc(Cl)cc3)c2n1 : is its IC50 strictly below 2 nM?
rule not met

Is 2 nM strictly greater than the compound's reported IC50? compound: CN(CCC(N)=O)c1cc(N2CCC(C)(C(N)=O)CC2)n2nc(-c3ccccc3Cl)c(-c3ccc(Cl)cc3)c2n1
rule met

###

target-system: human CB1 receptor (Homo sapiens, UniProt P21554)
Construct: expressed in transfected cells; host or cells: HEK293
procedure-text: bioSensAll β-arrestin plasma membrane translocation BRET biosensor (+GRK2) assay (antagonism of CP-55,940)
Assay type: cell-based
run-parameters: HEK293 cells transfected with hCB1 and β-arrestin PM translocation biosensor (+GRK2), EC75 of CP-55,940 (100 nM), overnight incubation, read-out: CB1 wt βarr2 IC50
quantity-name: IC50 (nM)
Respond with the bare value in nM.

compound	target-system	IC50 [nM]
O[C@H]1CCN(c2cc(-c3ccc(C(F)(F)F)nc3)n3nc(-c4ccccc4Cl)c(-c4ccc(Cl)cc4)c3n2)C1 [Compound 72(S)]	human CB1 receptor (Homo sapiens, UniProt P21554)	5.25
CC(C)(O)COc1cc(-c2ccc(C(F)(F)F)nc2)n2nc(-c3ccccc3Cl)c(-c3ccc(Cl)cc3)c2n1	human CB1 receptor (Homo sapiens, UniProt P21554)	8.61
C[C@@H](O)COc1cc(-c2ccc(C(F)(F)F)nc2)n2nc(-c3ccccc3Cl)c(-c3ccc(Cl)cc3)c2n1 [Compound 70(R)]	human CB1 receptor (Homo sapiens, UniProt P21554)	2.78
CC(C)(O)COc1cc(N2CCC(C)(C(N)=O)CC2)n2nc(-c3ccccc3Cl)c(-c3ccc(Cl)cc3)c2n1	human CB1 receptor (Homo sapiens, UniProt P21554)	3.51
CCOC1(C(N)=O)CCN(c2cc(OCC(C)(C)O)nc3c(-c4ccc(Cl)cc4)c(-c4ccc(C#N)nc4)nn23)CC1	human CB1 receptor (Homo sapiens, UniProt P21554)	3.22

# ---- query compound ----
Reported IC50 for CCNC(=O)CNc1cc(N2CCC(C)(C(N)=O)CC2)n2nc(-c3ccccc3Cl)c(-c3ccc(Cl)cc3)c2n1 : what is it?
131

###

target-system: human CB1 receptor (Homo sapiens, UniProt P21554)
Construct: expressed in transfected cells; host or cells: HEK293
procedure-text: bioSensAll β-arrestin plasma membrane translocation BRET biosensor (+GRK2) assay (antagonism of CP-55,940)
Format: cell-based
run-parameters: HEK293 cells transfected with hCB1 and β-arrestin PM translocation biosensor (+GRK2), EC75 of CP-55,940 (100 nM), overnight incubation, read-out: CB1 wt βarr2 IC50
quantity-name: IC50 (nM)
A number alone suffices; assume nM.

Take a look at these entries with their results.
compound	target-system	quantity-name	reported-measurement
CCOC1(C(N)=O)CCN(c2cc(OCC(C)(C)O)nc3c(-c4ccc(Cl)cc4)c(-c4ccccc4Cl)nn23)CC1	human CB1 receptor (Homo sapiens, UniProt P21554)	IC50	4.73
CN(CCC(N)=O)c1cc(N2CC[C@H](CC(N)=O)C2)n2nc(-c3ccccc3Cl)c(-c3ccc(Cl)cc3)c2n1	human CB1 receptor (Homo sapiens, UniProt P21554)	IC50	93.9

Need IC50 of C[C@@H](CO)Oc1cc(-c2ccc(C(F)(F)F)nc2)n2nc(-c3ccccc3Cl)c(-c3ccc(Cl)cc3)c2n1 [Compound 71(S)] , thanks.
4.07

###

Listing of entries alongside the reported pIC50.
target-system: human CB1 receptor (Homo sapiens)
Construct: expressed in transfected cells; host or cells: HEK293
procedure-text: bioSensAll GAPL-Gi2 BRET biosensor assay (antagonism of CP-55,940)
Assay type: cell-based
run-parameters: HEK293 cells transfected with hCB1 and GAPL-Gi2 biosensor, EC75 of CP-55,940 (0.1 nM), overnight incubation, read-out: CB1 wt Gi2 IC50
Keep in mind that pIC50 stands for -log10 of concentration in molar terms.

Known results for molecules:
molecule	quantity-name	reported-measurement
C[C@@H](O)COc1cc(-c2ccc(C(F)(F)F)nc2)n2nc(-c3ccccc3Cl)c(-c3ccc(Cl)cc3)c2n1 [Compound 70(R)]	pIC50	8.95
CN(CC(C)(C)O)c1cc(-c2ccc(C(F)(F)F)nc2)n2nc(-c3ccc(C(N)=O)nc3)c(-c3ccc(Cl)cc3)c2n1	pIC50	8.90

Entry under review: CC(C)(O)COc1cc(-c2ccc(C(F)(F)F)nc2)n2nc(-c3ccccc3Cl)c(-c3ccc(Cl)cc3)c2n1 . Reported pIC50?
8.40

Would you mind telling me what pIC50 value was observed for CC(C)(O)COc1cc(N2CCC(C)(C(N)=O)CC2)n2nc(-c3ccc(C#N)nc3)c(-c3ccc(Cl)cc3)c2n1 ?
8.99

Can you look up the measured pIC50 of CCNC(=O)CN(C)c1cc(N2CCC(C)(C(N)=O)CC2)n2nc(-c3ccccc3Cl)c(-c3ccc(Cl)cc3)c2n1 [Compound 26] for me?
8.30

Need pIC50 of CN(CCC(N)=O)c1cc(N2CCC[C@@H](C(N)=O)C2)n2nc(-c3ccccc3Cl)c(-c3ccc(Cl)cc3)c2n1 , thanks.
7.59

Param item = CCOC1(C(N)=O)CCN(c2cc(N(C)CCO)nc3c(-c4ccc(Cl)cc4)c(-c4ccccc4Cl)nn23)CC1 ; retrieve measured pIC50.
9.01

What value of pIC50 has been reported for the following molecule? NC(=O)CC1CN(c2cc(N3CCC[C@H]3C(N)=O)nc3c(-c4ccc(Cl)cc4)c(-c4ccccc4Cl)nn23)C1
6.80

I would be grateful if you could share the reported pIC50 for N#Cc1ccc(-c2nn3c(N4CC(C(N)=O)C4)cc(N4CCC[C@H]4CO)nc3c2-c2ccc(Cl)cc2)cn1 .
8.86
